tested on: Danio rerio embryo; assay: BMC10 any morphological effect or mortality at 120 hpf; higher = less toxic
measurementKind: BMC10 any morphological effect or mortality

compound | testResult
O=C1Nc2ccc(Cl)cc2[C@@](C#CC2CC2)(C(F)(F)F)O1 [Efavirenz] | 1.3 µM

**Q:** State the recorded BMC10 any morphological effect or mortality for this entry: N=C(N)NCCC[C@H](NC(=O)c1ccc2ccccc2c1O)C(=O)N1CCC[C@H]1C(N)=O.O=C(O)C(F)(F)F [APC 366]
**A:** > 100 µM

**Q:** State the recorded BMC10 any morphological effect or mortality for this entry: Cn1c(CNc2ccc(C(=N)N)cc2)nc2cc(C(=O)N(CCC(=O)O)c3ccccn3)ccc21 [Dabigatran]
**A:** > 100 µM

----------
test system: Danio rerio embryo; assay: BMC10 any morphological effect or mortality at 120 hpf; higher = less toxic
measurementKind: BMC10 any morphological effect or mortality

Here is how some compounds turned out for BMC10 any morphological effect or mortality.
molecule | testResult
CCCCc1nc(Cl)c(CO)n1Cc1ccc(-c2ccccc2-c2nnn[n-]2)cc1.[K+] | > 100 µM
O=C(O)[C@H]1O[C@@H](Oc2cc3oc(-c4ccccc4)cc(=O)c3c(O)c2O)[C@H](O)[C@@H](O)[C@@H]1O | > 100 µM

**Q:** Tell me reported BMC10 any morphological effect or mortality for CC(C)CN(C[C@@H](OP(=O)([O-])[O-])[C@H](Cc1ccccc1)NC(=O)O[C@H]1CCOC1)S(=O)(=O)c1ccc(N)cc1.[Ca+2] , tested with Danio rerio embryo.
**A:** > 100 µM

----------
tested on: Danio rerio embryo; assay: LEL larval photomotor response dark phase 120 hpf
measurementKind: LEL larval photomotor response dark phase 120 hpf

Here is how some compounds turned out for LEL larval photomotor response dark phase 120 hpf.
compound | testResult
C=C1CC[C@@H]2[C@](C)(CO)[C@H](O)CC[C@@]2(C)[C@@H]1/C=C/C1=CCOC1=O [14-deoxy-11,12-didehydro Andrographolide] | > 100 µM
N#CC(=C(/N)Sc1ccccc1N)/C(C#N)=C(\N)Sc1ccccc1N | > 100 µM
O.O=c1c(O)c(-c2ccc(O)c(O)c2)oc2cc(O)cc(O)c12 | > 100 µM
CC(C)(C)C(O)C(Oc1ccc(-c2ccccc2)cc1)n1cncn1 (stereo not drawn) | 11.1 µM
CN1CC[C@H](c2c(O)cc(O)c3c(=O)cc(-c4ccccc4Cl)oc23)[C@H](O)C1.Cl | > 100 µM

**Q:** State the recorded LEL larval photomotor response dark phase 120 hpf for this entry: C=C[C@@H]1C[C@]1(NC(=O)[C@@H]1C[C@H](Oc2ncc(OC)c3ccc(Cl)cc23)CN1C(=O)[C@@H](NC(=O)OC(C)(C)C)C(C)(C)C)C(=O)NS(=O)(=O)C1CC1
**A:** 3.7 µM

**Q:** State the recorded LEL larval photomotor response dark phase 120 hpf for this entry: Cc1ccc(C2Nc3ccccc3C(=O)N2c2ccccc2)s1 (stereo not drawn)
**A:** > 100 µM

**Q:** State the recorded LEL larval photomotor response dark phase 120 hpf for this entry: CC(=O)O/N=C1/C(=C2\C(=O)Nc3cc(Br)ccc32)Nc2ccccc21
**A:** 33.3 µM

**Q:** State the recorded LEL larval photomotor response dark phase 120 hpf for this entry: CC(C)C[C@H](NC(=O)[C@H](Cc1ccccc1)NC(=O)c1cnccn1)B(O)O
**A:** 0.14 µM

**Q:** State the recorded LEL larval photomotor response dark phase 120 hpf for this entry: CCCCCCCC/C=C\CCCCCCCCCCCCCC(=O)O
**A:** > 100 µM

**Q:** State the recorded LEL larval photomotor response dark phase 120 hpf for this entry: C[C@H]1[C@H](OC(=O)CCC(=O)O)O[C@@H]2O[C@@]3(C)CC[C@H]4[C@H](C)CC[C@@H]1[C@@]24OO3 [Artesunate]
**A:** > 100 µM

**Q:** State the recorded LEL larval photomotor response dark phase 120 hpf for this entry: COc1ccc2c(O[C@@H]3C[C@H]4C(=O)N[C@]5(C(=O)NS(=O)(=O)C6CC6)C[C@H]5/C=C\CCCCN(C)C(=O)[C@@H]4C3)cc(-c3nc(C(C)C)cs3)nc2c1C.[Na]
**A:** > 100 µM

**Q:** State the recorded LEL larval photomotor response dark phase 120 hpf for this entry: C/C=C(/C)C(=O)OC(C)(C)[C@@H]1Cc2c(ccc3ccc(=O)oc23)O1
**A:** > 100 µM

**Q:** State the recorded LEL larval photomotor response dark phase 120 hpf for this entry: C[C@H](NC(=O)Cc1cc(F)cc(F)c1)C(=O)N[C@@H]1C(=O)N(C)c2ccccc2-c2ccccc21
**A:** 0.41 µM

**Q:** State the recorded LEL larval photomotor response dark phase 120 hpf for this entry: CC(=O)O[C@]1(C(C)=O)CC[C@H]2[C@@H]3C=C(C)C4=CC(=O)CC[C@]4(C)[C@H]3CC[C@@]21C [Megestryl acetate]
**A:** > 100 µM

**Q:** State the recorded LEL larval photomotor response dark phase 120 hpf for this entry: C/C=C(/C)C(=O)O[C@H]1c2cc(OC)c(OC)c(OC)c2-c2c(cc3c(c2OC)OCO3)C[C@H](C)[C@]1(C)O
**A:** > 100 µM

**Q:** State the recorded LEL larval photomotor response dark phase 120 hpf for this entry: COc1ccc(CC(C)C(C)Cc2ccc(OC)c(OC)c2)cc1OC (stereo not drawn)
**A:** > 100 µM

**Q:** State the recorded LEL larval photomotor response dark phase 120 hpf for this entry: C[C@]12CC[C@H](O)C[C@H]1CC[C@@H]1[C@@H]2CC[C@]2(C)[C@@H](c3ccc(=O)oc3)C[C@H]3O[C@]132
**A:** > 100 µM

**Q:** State the recorded LEL larval photomotor response dark phase 120 hpf for this entry: CCN(CC)Cc1cc(Nc2ccnc3cc(Cl)ccc23)ccc1O
**A:** 11.1 µM

**Q:** State the recorded LEL larval photomotor response dark phase 120 hpf for this entry: OC1=C2C(C(C=C([C@@](O)([H])C/C=C(C)\C)C2=O)=O)=C(O)C=C1
**A:** > 100 µM

**Q:** State the recorded LEL larval photomotor response dark phase 120 hpf for this entry: O=C(Nc1cccc(NC(=O)c2cccc(O)c2O)c1)c1cccc(O)c1O
**A:** > 100 µM

**Q:** State the recorded LEL larval photomotor response dark phase 120 hpf for this entry: CC(=O)c1c(O)cc(O)c(C(C)=O)c1O
**A:** > 100 µM

**Q:** State the recorded LEL larval photomotor response dark phase 120 hpf for this entry: S=C(N(C1=CC=CC=C1)C(/C2=C\C3=CC=C(C4=CC=CC=C4[N+]([O-])=O)O3)=O)N(C5=CC=CC=C5)C2=O
**A:** > 100 µM

**Q:** State the recorded LEL larval photomotor response dark phase 120 hpf for this entry: CC1(C)CC[C@]2(C(=O)O)CC[C@]3(C)C(=CC[C@@H]4[C@@]5(C)C[C@@H](O)[C@H](O)C(C)(C)C5CC[C@]43C)[C@H]2C1 (stereo partly drawn)
**A:** > 100 µM

**Q:** State the recorded LEL larval photomotor response dark phase 120 hpf for this entry: CCS(=O)(=O)Nc1ccc2c(c1)/C(=C(/Nc1ccc(CN3CCCCC3)cc1)c1ccccc1)C(=O)N2
**A:** > 100 µM

**Q:** State the recorded LEL larval photomotor response dark phase 120 hpf for this entry: COc1ccc2cc1Oc1ccc(cc1)C[C@H]1c3cc(c(OC)cc3CCN1C)Oc1c(O)c(OC)cc3c1[C@H](C2)N(C)CC3
**A:** > 100 µM

**Q:** State the recorded LEL larval photomotor response dark phase 120 hpf for this entry: COc1cc2c(c(OC)c1OC)-c1c(cc(OC)c(OC)c1OC)C[C@H](C)[C@H](C)C2
**A:** > 100 µM

**Q:** State the recorded LEL larval photomotor response dark phase 120 hpf for this entry: c1ccc(CNc2nc(NCc3ccccc3)c3ccccc3n2)cc1
**A:** > 100 µM
